Quick list: pEC50 per entry.
# Tested on: T-47D
# assay_details: Caspase cascade activation assay (Ac-DEVD-R110 fluorogenic substrate) in T-47D cells
# Type: cell-based, Human
# details: Homo sapiens, T47D, 24 h, 24 h incubation, sigmoidal dose-response, read-out: Caspase potency EC50
pEC50: −log10 of the molar value.
reported_endpoint: pEC50

[
  {
    "compound": "Cc1ccccc1N(C)C(=O)c1cccc2c1C(=O)c1ccccc1-2",
    "result": "< 5.00"
  },
  {
    "compound": "O=C(Nc1ccccc1-n1cccn1)c1cccc2sc3c(c12)C(=O)CC=C3",
    "result": "< 5.00"
  },
  {
    "compound": "Cc1cccc(NC(=O)c2cccc3c2C(=O)c2ccccc2-3)c1",
    "result": "< 5.00"
  },
  {
    "compound": "O=C(Nc1ccccn1)c1cccc2c1C(=O)c1ccccc1-2",
    "result": "< 5.00"
  },
  {
    "compound": "CN1CCN(Cc2ccccc2NC(=O)c2cccc3c2C(=O)c2ccccc2-3)CC1",
    "result": "< 5.00"
  },
  {
    "compound": "Cc1cccc(C)c1NC(=O)c1cccc2c1C(=O)c1ccccc1-2",
    "result": "< 5.00"
  },
  {
    "compound": "CN(C(=O)c1cccc2c1C(=O)c1ccccc1-2)c1ccccc1-n1cccn1",
    "result": "< 5.00"
  },
  {
    "compound": "O=C(Nc1ccccc1-c1nnn[nH]1)c1cccc2c1C(=O)c1ccccc1-2",
    "result": "< 5.00"
  },
  {
    "compound": "O=C(Nc1ccccc1-n1ccnc1)c1cccc2c1C(=O)c1ccccc1-2",
    "result": "< 5.00"
  },
  {
    "compound": "Nc1ccccc1NC(=O)c1cccc2c1C(=O)c1ccccc1-2",
    "result": "< 5.00"
  },
  {
    "compound": "CC1CCCCC1NC(=O)c1cccc2c1C(=O)c1ccccc1-2 (centres unmarked)",
    "result": "< 5.00"
  },
  {
    "compound": "COc1ccc(NC(=O)c2cccc3c2C(=O)c2ccccc2-3)cc1",
    "result": "< 5.00"
  },
  {
    "compound": "O=C(Nc1ccccc1-n1cccn1)c1cccc2oc3ccccc3c12",
    "result": "< 5.00"
  },
  {
    "compound": "Cc1ccccc1NC(=O)c1cccc2c1C(O)c1ccccc1-2 (centres unmarked)",
    "result": 5.43
  },
  {
    "compound": "O=C(Nc1ccccc1-n1cccn1)c1cccc2c3c([nH]c12)CCCC3",
    "result": "< 5.00"
  },
  {
    "compound": "O=C(Nc1ccccc1-n1cccn1)c1cccc2c1C(=O)c1ccccc1-2",
    "result": 6.01
  },
  {
    "compound": "Cc1cccnc1NC(=O)c1cccc2c1C(=O)c1ccccc1-2",
    "result": "< 5.00"
  },
  {
    "compound": "Cc1ccncc1NC(=O)c1cccc2c1C(=O)c1ccccc1-2",
    "result": "< 5.00"
  },
  {
    "compound": "N#Cc1ccccc1NC(=O)c1cccc2c1C(=O)c1ccccc1-2",
    "result": 5.70
  },
  {
    "compound": "O=C(Nc1ccccc1-n1cccn1)c1ccc([N+](=O)[O-])c2c1C(=O)c1cc([N+](=O)[O-])ccc1-2",
    "result": 5.22
  }
]
